assay: Luciferase activity of purified RLuc mutants (light output integrated over 10 s, luminometer); type: biochemical; details: bisdeoxycoelenterazine; relative to native enzyme
measurement-label: Activity (relative to RLuc) bdc
Form field (numeric): enter value without unit.

Lookup: Supply Activity (relative to RLuc) bdc value. Item: C124A/L203R: RLuc mutant C124A/L203R (protein) MASKVYDPEQRKRMITGPQWWARCKQMNVLDSFINYYDSEKHAENAVIFLHGNAASSYLWRHVVPHIEPVARCIIPDLIGMGKSGKSGNGSYRLLDHYKYLTAWFELLNLPKKIIFVGHDWGAALAFHYSYEHQDKIKAIVHAESVVDVIESWDEWPDIEEDIALIKSEEGEKMVLENNFFVETMLPSKIMRKLEPEEFAAYREPFKEKGEVRRPTLSWPREIPLVKGGKPDVVQIVRNYNAYLRASDDLPKMFIESDPGFFSNAIVEGAKKFPNTEFVKVKGLHFSQEDAPDEMGKYIKSFVERVLKNEQ
Found: 0.43
